Provide the recorded protein stability index for the entries that follow.
test: protein stability index of a GFP-peptide fusion (GPS, HEK-293T) (PSI 1-6); higher = more stable; conditions: treatment: MLN4924 1 uM, 8 h; c terminus: a fixed tail appended;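 also: 24-mer peptide tiles fused after GFP, lentivirally expressed, FACS-sorted into six equal bins by GFP/DsRed ratio, decoded by Illumina sequencing, PSI is the read-weighted mean bin number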
Give bare numbers.

# count of solved cases: 2
LKIFTEDLPEVESLPRDRVLGFLI [VPS39]: 2.23
LSGTRESLAQGPDAATTDELSSLG [TBC1D10A]: 4.9

List reported protein stability index for each of these sequences:
1. EEPRPSRPRYKADVPDLQSVCSCT [KCNK9]
2. VQRLTSRAARDYKIQNHGHRVLQR [FCHSD1]
3. CSYTDLLPQDEGGGGYSSVRYSDC [KCNA4]
4. PGESLECPAELRPQVPQPPSPAAV [TRAF3IP2]
5. GAVAPMDFTTAAEDQPINLCDKLP [NOL4L]
6. AQQLLCDEQAPQRQRLLADLLHNV [DFFB]
7. SWRVGVVRVRQDSGAEGHSHSCYH [TRIM35]
8. QVAFGSLYRDDVLIKPSRVVAILA [GMCL1]

Output line:
[4.55, 3.44, 2.68, 5.18, 4.77, 3.92, 3.2, 2.46]

###

Provide the recorded protein stability index for the entries that follow.
assay: protein stability index of a GFP-peptide fusion (GPS, HEK-293T) (PSI 1-6); higher = more stable; details: treatment: DMSO; c terminus: a fixed tail appended

# count of solved cases: 4
EALAVLEPYARLPPHKHVARPTEV [TRIB3]: 2.72
MRKSGAMKKGGIFSAEFLKVFIPS [BNIP3L]: 2.38
EQNQEGDAAYRKALDLAREFLPQG [AUH]: 4.42
GCECEDGPDGQEMDPPNPEEVKTP [GAGE1]: 5.48

List reported protein stability index for each of these sequences:
1. QIAQLEASLAAAKKQLADETLLKV [LMNB1]
2. PGKLFIGGLNRETNEKMLKAVFGK [RBMY1A1]
3. RDKAKMRNLETQHKVLELTAENER [CEBPB]
4. QLFEDPTVDKEVEIRKKVLKIYNK [MNAT1]
5. GPPVGPLSLGLATVDIQNPDITSS [WAS]
6. KCKKKITGEIMHALKMTWHVHCFT [PDLIM7]

Output line:
1. 2.72
2. 2.69
3. 4.9
4. 3.41
5. 4.68
6. 2.81

List reported protein stability index for each of these sequences:
1. YVALFPCNECAKLIIQAGIKEVIF [DCTD]
2. APPGSLVTKVTAVDADAGHNAWLS [PCDHGC5]
3. RYLTFFHNYNILIATLRVALPSVM [MCOLN1]

Output line:
2.73
3.85
3.31

###

assay: protein stability index of a GFP-peptide fusion (GPS, HEK-293T) (PSI 1-6); higher = more stable; conditions: treatment: MLN4924 1 uM, 8 h; c terminus: a fixed tail appended
protein stability index below 4 gives FALSE; protein stability index at or above it gives TRUE.

FAELSVDMEKILEIIRVILKLYEQ [CCNC]: FALSE
HDTKDQSPSRAPGLRQRASNKVQD [HMOX1]: TRUE
NMSLTALREKLLEAEQSLRNLEDI [TEKT4]: FALSE
TQRQFTILNFNDLMSSAVPMTPED [AASDHPPT]: FALSE

Input line: Is the recorded value of protein stability index equal to or greater than 4 for this sequence? KQEENDVVEKLNLFLDLLQSYKDL [SNX8]
Output line: FALSE

Input line: Is the recorded value of protein stability index equal to or greater than 4 for this sequence? LESEGKNSKKEEPQELLQSQDFVG [ATE1]
Output line: TRUE

Input line: Is the recorded value of protein stability index equal to or greater than 4 for this sequence? LTRIRKWIEHSKLREINFKIVEFN [GLT8D2]
Output line: FALSE

###

assay: protein stability index of a GFP-peptide fusion (GPS, HEK-293T) (PSI 1-6); higher = more stable; conditions: treatment: DMSO; c terminus: a fixed tail appended
Provide the recorded protein stability index for the entries that follow.
Give bare numbers.

# count of solved cases: 3
LSELYEESSDLQMDVMPGEGDLPQ [EID1]: 5.42
FDGTAHLSSVEAYNIRTDSWTTVT [KLHL12]: 2.58
RCGKFLQDGLPPTWRDFRTLEAFH [MED27]: 2.17

List reported protein stability index for each of these sequences:
1. PRASISHVTCVDQSEHTMVLRCQL [C2CD2L]
2. MKALLGSYAHSVEDTHVQIGQVHE [FCHO1]
3. KKLRLNGGRNPYEGRVEVLVERNG [LOXL2]

Output line:
2.34
3.62
3.05

List reported protein stability index for each of these sequences:
1. LMRSQSPKAQPQTWKSGKQTMLSH [TRIM29]
2. YKDTCHELDELQLCKNCFYLSNAR [ZMYND11]
3. SMQYNGSYFDRGAKGGSRLCTPEG [DFFB]
4. EEFPKREDQEGSPPETSLPYKWVV [MYBL2]
5. IMPDGTIVTTVTTVQSRPRIDGKL [C2CD2L]

Output line:
[3.34, 2.66, 2.98, 3.83, 3.31]

List reported protein stability index for each of these sequences:
1. LAEVAPVVTTEHILVSVAAGVSLS [PYCR3]
2. VYRAELVGELNGYLRDSSPAPCAD [PWWP2B]
3. MASCAEPSEPSAPLPAGVPPLEDF [FKBP8]
4. ATAASSSASSPASVGDPCGGAICG [SLC25A25]
5. NIDETCGRHHSQSTEVQAHPYSTT [TEKT4]
6. PSGSLENGTKADGKDAKTTNGHGG [TRIM29]

Output line:
[2.22, 3.31, 4.97, 4.9, 4.62, 5.26]

List reported protein stability index for each of these sequences:
1. KPILLQRMEGSQEVVNMAVIVPKE [WDFY2]
2. FFVPLSYLLMVTVILLPYVSKVTG [TMEM175]
3. GDSHYEIEIVHISTVQILTEGFPP [ZFYVE21]

Output line:
3.7
3.33
2.71

List reported protein stability index for each of these sequences:
1. YHTSQSGDEMTSLSEYVSRMKETQ [HSP90AB1]
2. TLVDEGDLYNWEVAIFGPPNTYYE [CDC34]
3. FRLTTLLMSGCSSELKNRMEYALN [PLK2]
4. MQIEFIKQGSMNFRFIPVLFPNAK [TRAF3IP2]

Output line:
1: 3.9; 2: 2.33; 3: 2.46; 4: 2.96

List reported protein stability index for each of these sequences:
1. STPLSPAYISLVEEEDQHMKLSLG [KLHL13]
2. DNAPAVLHPRPDWEHSAPQRLPRS [PCDHGC5]

Output line:
[4.27, 4.72]

###

Provide the recorded protein stability index for the entries that follow.
assay: protein stability index of a GFP-peptide fusion (GPS, HEK-293T) (PSI 1-6); higher = more stable; conditions: treatment: DMSO; c terminus: a fixed tail appended
Give bare numbers.

# count of solved cases: 5
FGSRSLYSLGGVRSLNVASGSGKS [KRT71]: 2.35
HNYNILIATLRVALPSVMRFCCCV [MCOLN1]: 2.83
AFPYQYPPPPHPYNPHPGFPELGY [DVL3]: 2.35
QLRGQLQDLDSRLRAGSSEFDSEH [RASAL3]: 4.71
PDRASGPEGSLSQTMAGSSPNTPQ [FAM104A]: 5.3

List reported protein stability index for each of these sequences:
1. RVQVQVVERAQQVAVQEQEIARRE [FLOT1]
2. LLHGLNLLWRKQLFCDVTLTAQGQ [KLHL14]
3. LFRWPDLQHAVELKPLCGCHSFAA [SMAD6]

Output line:
5
3.3
2.27

###

assay: protein stability index of a GFP-peptide fusion (GPS, HEK-293T) (PSI 1-6); higher = more stable; details: treatment: MLN4924 1 uM, 8 h; c terminus: a fixed tail appended
Provide the recorded protein stability index for the entries that follow.
Answers are plain numbers.

# count of solved cases: 2
QGASESQAPGEENLLGEAAGGQDM [HDAC6]: 5.45
QYREAAGPHEAFNKLWELCCQWLK [ZNF449]: 3.05

List reported protein stability index for each of these sequences:
1. PLKLHYQLRNVRERLAKNLVEKGV [GOLPH3]
2. VELYRIKFKESFAEMNRGSNEWKT [COX4I1]
3. SDYPSPDISPPIFRRGEKLRVISD [SLA]
4. CTNSPAIVRFSGQSRGVPAVSESY [FBXO34]
5. SRGSPVRVKREFEPASAREAPASV [USP39]

Output line:
1. 2.7
2. 2.07
3. 4.2
4. 3.14
5. 4.49

###

assay: protein stability index of a GFP-peptide fusion (GPS, HEK-293T) (PSI 1-6); higher = more stable; conditions: treatment: DMSO; c terminus: a fixed tail appended
Provide the recorded protein stability index for the entries that follow.
One number for each entry.

# count of solved cases: 5
MDIKNSPSSLNSPSSYNCSQSILP [ESR2]: 3.8
ELTATFTKFDRDGNRILDEKEQEK [PKD2L1]: 5.38
KTEITDLRRTMQELEIELQSQLSM [KRT15]: 3.79
HLNETVKAPDIECVLRCSVLEIEQ [FEM1B]: 3.07
RSLLPSTEYQKQLLAAQVQLQCSP [FBF1]: 3.46

List reported protein stability index for each of these sequences:
1. YADFERFSKVLEEAAAAEEGLREL [DAPK3]
2. AAPAAGLCGAGSEPSIAPTSCAGN [RSPH3]
3. EEHSLEQVQSMVVGEVLKDIETAC [SPDEF]
4. DNLSDLVMVRWNKSLEWSPWNCIL [IQUB]
5. LLPLVTLCDGNPRRPSPVLRHLEL [SCNN1D]

Output line:
1. 2.46
2. 4.55
3. 4.8
4. 2.56
5. 2.42

List reported protein stability index for each of these sequences:
1. VVVKLLHPPSHWPLIKATVGLIRN [CTNNB1]
2. EALAKWAEGRTGFPWIDAIMTQLR [CRY1]
3. DFGLAKEYIDPETKKHIPYREHKS [CSNK1G1]

Output line:
1: 2.48; 2: 3; 3: 4.26

List reported protein stability index for each of these sequences:
1. NHLDPFGHIILNSMHKYQPRLHIV [TBX5]
2. VLHIVASLIILHLSGATKKGTEKQ [NETO1]
3. SSARIPKCPWMEGGEMSPQVETSI [INTS4]
4. GPDVLETDGLQEVPLCSCRMETPK [EHMT1]

Output line:
1: 2.31; 2: 2.78; 3: 3.9; 4: 4.16

List reported protein stability index for each of these sequences:
1. NQVSSNSWGIAGETELALVKESGE [DLC1]
2. HQKLEREARICRLLKHSNIVRLHD [CAMK2B]
3. EIENVKKQASNLETAIADAEQRGD [KRT71]
4. SRNRDPGRLILSTIRLRPRQVLCE [PWWP2B]
5. MHPKETTRQLSLAVKDGLIVETLT [ZMYND11]
6. RKLLESEECRMSGEFPSPVSISII [KRT71]
7. YVDIQGLTASTMEILLDFVYTETV [KLHL12]

Output line:
5.17
2.58
5.29
2.68
3.27
2.42
3.56
